Molecular target: hS1P1 (Homo sapiens)
Sequence (P21453 whole entry): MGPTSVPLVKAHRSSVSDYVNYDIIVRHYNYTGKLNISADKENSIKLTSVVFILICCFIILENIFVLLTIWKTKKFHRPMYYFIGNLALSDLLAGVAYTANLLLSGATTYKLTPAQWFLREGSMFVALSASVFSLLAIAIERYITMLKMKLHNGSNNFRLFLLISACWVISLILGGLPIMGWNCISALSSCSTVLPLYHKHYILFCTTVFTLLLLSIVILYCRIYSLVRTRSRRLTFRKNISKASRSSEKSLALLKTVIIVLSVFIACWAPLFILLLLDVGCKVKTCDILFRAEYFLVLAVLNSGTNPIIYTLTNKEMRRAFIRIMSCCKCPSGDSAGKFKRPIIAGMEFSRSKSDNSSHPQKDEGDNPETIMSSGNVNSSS
Experiment: hS1P1 EC50 (S1P receptor Ca2+ flux protocol, FLIPR, CHO K1 Gqi5 cells)
Settings: several values per compound = repeat determinations as printed
pEC50: −log10 of the molar value.
quantityName: pEC50

Worked cases, answers included:
                                   compound  quantityname  reportedmeasurement
0  CCCCOc1ccc2oc(-c3ccc(CN4CC(C(=O)O)C4)cc3)cc2c1 [Reference Compound 3]         pEC50                 6.28
1  O=C(O)C1CN(Cc2ccc(-c3nc4cc(Cc5ccccc5)ccc4s3)c(F)c2)C1 [Inventive Compound 114]         pEC50                 7.54
2  O=C(O)C1(O)CN(Cc2ccc(-c3cc4cc(Cc5ccccc5)ccc4o3)c(F)c2)C1 [Reference Compound 88]         pEC50                 6.98

(P) CC(C)Cc1ccc2oc(-c3ccc(CN4CCC(C(=O)O)CC4)cc3)cc2c1 [Reference Compound 13]
(Q) O=C(O)C1CN(Cc2ccc(-c3cc4cc(Cc5ccccc5)ccc4s3)c(F)c2)C1 [Reference Compound 81]
[ask] Of P and Q , which one carries the higher reported pEC50? Write down the label of the entry you select.
[reply] Q

(I) CC(c1ccccc1)c1ccc2oc(-c3ccc(CN4CC(C(=O)O)C4)cc3F)cc2c1 (stereo not drawn) [Reference Compound 90]
(II) O=C(O)C1CN(Cc2ccc(-c3cc4cc(Cc5ccccc5)ccc4o3)c(F)c2)CCO1 (stereo not drawn) [Reference Compound 54]
(III) CC(c1ccc(-c2cc3cc(Cc4ccccc4)ccc3o2)c(F)c1)N1CC(C(=O)O)C1 (stereo not drawn) [Reference Compound 123]
(IV) O=C(O)C1CN(Cc2ccc(-c3cc4cc(Cc5ccccc5)cnc4o3)c(F)c2)C1 [Inventive Compound 98]
(V) O=C(O)C1CN(Cc2ccc(-c3cc4cc(C(F)(F)c5ccccc5)ccc4o3)c(F)c2)C1 [Reference Compound 91]
[ask] Returns the items ordered by pEC50, from maximum to minimum. Use the labels to give the ranking in the order requested.
[reply] V, IV, I, III, II
(V: 7.89, IV: 7.57, I: 7.00, III: 6.50, II: 5.73)

(1) CCCCOc1ccc2oc(-c3ccc(CN4CC(C(=O)O)C4)s3)cc2c1 [Reference Compound 25]
(2) O=C(O)C1CN(Cc2ccc(-c3cc4cc(Cc5ccccc5F)ccc4o3)c(F)c2)C1 [Reference Compound 75]
[ask] Lowest pEC50? choose 1 or 2 Refer to your chosen entry by its label in the reply.
[reply] 1

(P) O=C(O)C1CN(Cc2ccc(-c3cc4nc(Cc5ccccc5)ccc4o3)c(F)c2)C1 [Reference Compound 109]
(Q) O=C(O)C1CN(Cc2ccc(-c3cc4cc(Cc5ccc(F)cc5)ccc4o3)c(F)c2)C1 [Reference Compound 73]
[ask] Hey, which is lower on measured pEC50, P or Q ? Label of pick, please.
[reply] P
